The measured values listed here are drawn from ChEMBL document CHEMBL1130067.

Target chain: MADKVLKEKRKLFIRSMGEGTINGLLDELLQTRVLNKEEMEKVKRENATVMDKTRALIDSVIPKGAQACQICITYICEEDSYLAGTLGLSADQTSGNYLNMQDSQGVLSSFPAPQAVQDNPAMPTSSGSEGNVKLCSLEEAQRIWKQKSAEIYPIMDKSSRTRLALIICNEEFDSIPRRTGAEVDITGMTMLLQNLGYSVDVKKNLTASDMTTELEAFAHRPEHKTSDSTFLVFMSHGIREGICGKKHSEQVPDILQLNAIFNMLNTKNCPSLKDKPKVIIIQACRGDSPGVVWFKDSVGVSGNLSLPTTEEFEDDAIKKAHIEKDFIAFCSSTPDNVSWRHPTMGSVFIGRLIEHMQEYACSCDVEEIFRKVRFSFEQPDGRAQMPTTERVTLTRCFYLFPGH
Peptide text beside a SMILES is read from it. * marks the point of attachment. Cbz = O=C(OCc1ccccc1)*
Property Label: pKi
Give bare numbers, as −log10 of the molar value.

[[record]]
compound = "CC(C)[C@H](NC(=O)OCc1ccccc1)C(=O)N[C@@H](C)C(=O)N[C@@H](CC(=O)O)C(=O)O (Cbz-Val-Ala-Asp-OH)"
value_observed = 7.82


Continue with the compound presented below.
Look at this compound and give its reported pKi. O=C[C@H](CC(=O)O)NC(=O)[C@@H]1CCCN2C(=O)CC[C@H](NC(=O)OCc3ccccc3)C(=O)N12
7.60
